Tested on: velvetleaf (Abutilon theophrasti, ABUTH)
Assay: Pre-emerge test, greenhouse herbicide activity screening
Assay type: in vivo
Details: pre-emerge, rate 63 g ai/ha, phytotoxicity rating 0-100 at 14 days after application
Pre-emerge Herbicidal Activity ABUTH values by entry

molecule="Cc1c(Cl)cc(F)c(-n2c(=O)cc(C(F)(F)F)n(C)c2=O)c1NC(=O)OCc1ccco1 [4-70]" assay_target="velvetleaf (Abutilon theophrasti, ABUTH)" measured_property="Pre-emerge Herbicidal Activity ABUTH" reported_measurement=100
molecule="CC(C)Oc1c(Cl)cc(Cl)c(-n2nnn(CCCF)c2=O)c1N [Compound 5-16]" assay_target="velvetleaf (Abutilon theophrasti, ABUTH)" measured_property="Pre-emerge Herbicidal Activity ABUTH" reported_measurement=0
molecule="Cc1c(Cl)cc(F)c(-n2c(=O)cc(C(F)(F)F)n(C)c2=O)c1NC(=O)OCc1ccc(Cl)cc1 [4-61]" assay_target="velvetleaf (Abutilon theophrasti, ABUTH)" measured_property="Pre-emerge Herbicidal Activity ABUTH" reported_measurement=60

Please examine the following record next.
Please provide the recorded Pre-emerge Herbicidal Activity ABUTH for C#CCOc1c(Cl)cc(F)c(N2C(=O)C3=C(CCCC3)C2=O)c1N [Compound 8-3] , tested on velvetleaf (Abutilon theophrasti, ABUTH). 98

----------
Tested on: johnsongrass (Sorghum halepense, SORHA)
Test: Pre-emerge test, greenhouse herbicide activity screening
Format: in vivo
Details: 250 g ai/ha; rating scale 0-100, 14 days after application
measured-property: Pre-emerge herbicidal activity, phytotoxicity rating SORHA
Would you mind answering with just the numeric figure?

compound=COc1c(Cl)cc(F)c(N2C(=O)c3ccccc3C2=O)c1NC(=O)c1ccc(F)cc1F reported_measurement=40

Would you mind telling me what Pre-emerge herbicidal activity, phytotoxicity rating SORHA value was observed for C=COC(=O)C(C)(Cl)Cc1c(OC)c(Cl)cc(F)c1-n1c(=O)cc(C(F)(F)F)n(C)c1=O (stereo not shown) ? 0

----------
System: barnyardgrass (Echinochloa crus-galli, ECHCG)
Assay: Pre-emerge test, greenhouse herbicide activity screening
Format: in vivo
Conditions: 250 g ai/ha; rating scale 0-100, 14 days after application
measured-property: Pre-emerge herbicidal activity, phytotoxicity rating ECHCG
# answer = number (no unit)

Here is how some compounds turned out for Pre-emerge herbicidal activity, phytotoxicity rating ECHCG.
compound="COc1c(Cl)cc(F)c(-n2c(=O)cc(C(F)(F)F)n(C)c2=O)c1CC(Cl)C(=O)OCC(F)(F)C(F)F (stereo not shown)" reported_measurement=0
compound="COc1c(Cl)cc(F)c(-n2c(=O)cc(C(F)(F)F)n(C)c2=O)c1CC(C)(Cl)C(=O)OCc1ccccc1 (stereo not shown)" reported_measurement=80
compound="CCCCCCOC(=O)C(C)(Cl)Cc1c(OC)c(Cl)cc(F)c1-n1c(=O)cc(C(F)(F)F)n(C)c1=O (stereo not shown)" reported_measurement=70

Please turn your attention to the following entry.
Looking for the measured Pre-emerge herbicidal activity, phytotoxicity rating ECHCG of CCCCCOC(=O)C(C)(Cl)Cc1c(OC)c(Cl)cc(F)c1-n1c(=O)cc(C(F)(F)F)n(C)c1=O (stereo not shown) , can you help? 99

----------
Below, each entry is listed alongside its reported phytotoxicity rating SETVI.
System: green foxtail (Setaria viridis, SETVI)
Assay: Pre-emerge test, greenhouse herbicide activity screening
Format: in vivo
Details: pre-emerge, 250 g ai/ha, 14 days after application, rating scale 0-100
The answer should be written as a number, with no unit following it.

Solved entries (count: 3):
compound=Cn1c(C(F)(F)F)cc(=O)n(-c2ccc(Cl)cc2C(=O)c2ccccc2)c1=O assay_target="green foxtail (Setaria viridis, SETVI)" reported_measurement=0
compound=COc1c(Cl)cc(F)c(-n2c(=O)cc(C(F)(F)F)n(C)c2=O)c1NN=CCc1ccccc1 assay_target="green foxtail (Setaria viridis, SETVI)" reported_measurement=100
compound="CCOC(=O)C(Cl)(C#N)Cc1c(OC)c(Cl)cc(F)c1-n1c(=O)cc(C(F)(F)F)n(C)c1=O (stereo not drawn)" assay_target="green foxtail (Setaria viridis, SETVI)" reported_measurement=0

Missing value: phytotoxicity rating SETVI, green foxtail (Setaria viridis, SETVI), entry CCOC(=O)NNc1c(OC)c(Cl)cc(F)c1-n1c(=O)cc(C(F)(F)F)n(C)c1=O . Fill in? 100

Param readout= phytotoxicity rating SETVI; system= green foxtail (Setaria viridis, SETVI); entry= CCOC(=O)C(Cl)Cc1cc(Cl)cc(F)c1-n1c(=O)cc(C(F)(F)F)n(C)c1=O (stereo not drawn) ; returns value. 60

Give the reported phytotoxicity rating SETVI for COc1c(Cl)cc(F)c(-n2c(=O)cc(C(F)(F)F)n(C)c2=O)c1NN=CCCSC (system: green foxtail (Setaria viridis, SETVI)). 100

Lab note: need phytotoxicity rating SETVI with green foxtail (Setaria viridis, SETVI) for entry COc1c(Cl)cc(F)c(-n2c(=O)cc(C(F)(F)F)n(C)c2=O)c1NN=C(C)C , please look it up. 100

GET /values?readout=phytotoxicity rating SETVI&system=green foxtail (Setaria viridis, SETVI)&item= CCCOC(=O)C(Cl)Cc1c(OCC)c(Cl)cc(F)c1-n1c(=O)cc(C(F)(F)F)n(C)c1=O (stereo not drawn) 100

Observed phytotoxicity rating SETVI on green foxtail (Setaria viridis, SETVI) for COc1c(Cl)cc(F)c(-n2c(=O)cc(C(F)(F)F)n(C)c2=O)c1NN=CC(C)c1ccccc1 (stereo not drawn) , please. 100

----------
Tested on: large crabgrass (Digitaria sanguinalis, DIGSA)
Experiment: Post-emerge test, greenhouse herbicide activity screening
Type: in vivo
Conditions: 63 g ai/ha; phytotoxicity rating 0-100 (0 no damage, 100 complete death), 14 days after application
Post-emerge Herbicidal Activity DIGSA overview
Reply with the value as a number alone.

Some solved cases for reference:
molecule=CCc1ccc(C(=O)Nc2c(OCC#N)c(Cl)cc(F)c2-n2c(=O)cc(C(F)(F)F)n(C)c2=O)cc1 reported_measurement=0
molecule=COc1c(Cl)cc(F)c(-n2c(=O)cc(C(F)(F)F)n(C)c2=O)c1N1CCCC1 reported_measurement=0
molecule=CCOC(=O)CC(=O)Nc1c(OC(=O)CC(=O)OCC)c(Cl)cc(F)c1-n1c(=O)cc(C(F)(F)F)n(C)c1=O reported_measurement=20

large crabgrass (Digitaria sanguinalis, DIGSA) / Post-emerge Herbicidal Activity DIGSA / COc1c(Cl)cc(F)c(-n2c(=O)cc(C(F)(F)F)n(C)c2=O)c1NS(=O)(=O)c1ccc(C)cc1 : value? 0

So what Post-emerge Herbicidal Activity DIGSA did COc1c(Cl)cc(F)c(-n2c(=O)cc(C(F)(F)F)n(C)c2=O)c1N=CN(C)C get with large crabgrass (Digitaria sanguinalis, DIGSA)? 0

----------
Consider the following compounds and their measured Post-emerge Herbicidal Activity CORN (crop damage) readings.
Tested on: field corn (Zea mays L., var. Dekalb 535, CORN)
Assay: Post-emerge test, crop safety
Format: in vivo
Settings: 63 g ai/ha; phytotoxicity rating 0-100 (0 no damage, 100 complete death), 14 days after application
Number only, please.

Answered examples (5):
compound="COc1c(Cl)cc(F)c(-n2c(=O)cc(C(F)(F)F)n(C)c2=O)c1NC(=O)c1ccc(C)cc1 [2-24]" reported_measurement=70
compound="Cn1c(C(F)(F)F)cc(=O)n(-c2c(F)cc(Cl)c(OCC#N)c2N)c1=O [Compound 1-18]" reported_measurement=0
compound="CCOC(=O)COc1c(Cl)cc(F)c(-n2c(=O)cc(C(F)(F)F)n(C)c2=O)c1N [Compound 1-59]" reported_measurement=45
compound="COc1c(Cl)cc(F)c(-n2c(=O)cc(C(F)(F)F)n(C)c2=O)c1NC(=O)C=C(C)C [2-7]" reported_measurement=0
compound="COc1c(Cl)cc(F)c(-n2c(=O)cc(C(F)(F)F)n(C)c2=O)c1NS(=O)(=O)c1ccc(C)cc1 [2-26]" reported_measurement=0

Quick check: Post-emerge Herbicidal Activity CORN (crop damage) of C=C(C)C(=O)Nc1c(OC)c(Cl)cc(F)c1-n1c(=O)cc(C(F)(F)F)n(C)c1=O [2-5] ? 5

Which Post-emerge Herbicidal Activity CORN (crop damage) value belongs to COc1c(Cl)cc(F)c(-n2c(=O)cc(C(F)(F)F)n(N)c2=O)c1N [Compound 1-13] ? 20

----------
Test system: barnyardgrass (Echinochloa crus-galli, ECHCG)
Assay: Pre-emerge test, greenhouse herbicide activity screening
Type: in vivo
Details: 63 g ai/ha; phytotoxicity rating 0-100, 14 days after application
Experimental: A standard greenhouse herbicide activity screening system was used to evaluate the herbicidal efficacy and crop safety of these test compounds. […] At 14 days after application of the test materials, phytotoxicity ratings were recorded. […]
Respond with YES for Pre-emerge Herbicidal Activity ECHCG values of 30 and above, NO for values below.

compound="COc1c(Cl)cc(F)c(-n2c(=O)cc(C(F)(F)F)n(C)c2=O)c1NC(=O)OCc1cc(C)cc(C)c1 [4-37]" category=NO
compound="COc1c(Cl)cc(F)c(-n2c(=O)cc(C(F)(F)F)n(C)c2=O)c1NC(=O)OCc1ccc(F)cc1 [4-7]" category=YES
compound="Cn1c(C(F)(F)F)cc(=O)n(-c2ccc(Cl)cc2NC(=O)OCc2ccccc2F)c1=O [4-49]" category=NO
compound="Cc1ccc(-n2c(=O)cc(C(F)(F)F)n(C)c2=O)c(NC(=O)c2ccc3ccccc3c2)c1 [2-201]" category=NO

Textbook exercise: given the entry COC(=O)N(C(=O)OC)c1c(OC)c(Cl)cc(F)c1-n1c(=O)cc(C(F)(F)F)n(C)c1=O [4-2] , state whether its Pre-emerge Herbicidal Activity ECHCG is greater than or equal to 30. NO

Record Cn1c(C(F)(F)F)cc(=O)n(-c2c(F)cc(Cl)c(Oc3ncccc3[N+](=O)[O-])c2NC(=O)c2ccc3ccccc3c2)c1=O [2-199] ; criterion: Pre-emerge Herbicidal Activity ECHCG no lower than 30. Met? YES

# bool: Pre-emerge Herbicidal Activity ECHCG of COc1c(Cl)cc(F)c(-n2c(=O)cc(C(F)(F)F)n(C)c2=O)c1NC(=O)OC(C)c1ccccc1 (centres unmarked) [4-47] >= 30 YES
